# TARGET_ENTITY: TAF1-BD2 (Homo sapiens)
# EXPERIMENTAL_PROTOCOL: TAF1-BD2 TR-FRET Binding Assay
# ASSAY_CONTEXT: read-out: TAF1-BD2 HTRF IC50
Let's look at some compounds and their measured IC50.

{"COMPOUND": "Cc1[nH]c2c(=O)n(C)cc(C#CC(C)(O)CC#N)c2c1C(=O)OC(C)C (stereo not drawn)", "TARGET_ENTITY": "TAF1-BD2 (Homo sapiens)", "IC50": "106 nM"}
{"COMPOUND": "CCOC(=O)c1c(C)[nH]c2c(=O)n(C)cc(C#C[C@](C)(O)c3ncccn3)c12", "TARGET_ENTITY": "TAF1-BD2 (Homo sapiens)", "IC50": "1630 nM"}
{"COMPOUND": "C=CCCn1cc(C#C[C@@](C)(O)c2cc(C)on2)c2c(C(=O)OCC(C)C)c(C)[nH]c2c1=O", "TARGET_ENTITY": "TAF1-BD2 (Homo sapiens)", "IC50": "169 nM"}
{"COMPOUND": "Cc1[nH]c2c(=O)n(C)cc(C#CC(C)(O)C3CC3)c2c1-c1nnc(C2CCOC2)o1 (stereo not drawn) [Example 175]", "TARGET_ENTITY": "TAF1-BD2 (Homo sapiens)", "IC50": "46.7 nM"}
{"COMPOUND": "CCOC(=O)c1c(C)[nH]c2c(=O)n(C)cc(C#CC(O)(c3ccccc3)C(F)F)c12 (stereo not drawn) [Example 89]", "TARGET_ENTITY": "TAF1-BD2 (Homo sapiens)", "IC50": "32.9 nM"}
{"COMPOUND": "CCOC(=O)c1c(C)[nH]c2c(=O)n(C)cc(C#CC3(O)CCNCC3)c12", "TARGET_ENTITY": "TAF1-BD2 (Homo sapiens)", "IC50": "429 nM"}
{"COMPOUND": "CCOC(=O)c1c(C)[nH]c2c(=O)n(C)cc(C#CC(O)(c3cccc(CO)c3)C(F)(F)F)c12 (stereo not drawn)", "TARGET_ENTITY": "TAF1-BD2 (Homo sapiens)", "IC50": "35.5 nM"}
{"COMPOUND": "CCOC(=O)c1c(C)[nH]c2c(=O)n(C)cc(C#CC(C)(C)C(=O)N(C)C)c12", "TARGET_ENTITY": "TAF1-BD2 (Homo sapiens)", "IC50": "375 nM"}
{"COMPOUND": "CCOC(=O)c1c(C)[nH]c2c(=O)n(C)cc(C#CC(C)(C)OC)c12", "TARGET_ENTITY": "TAF1-BD2 (Homo sapiens)", "IC50": "284 nM"}

* * *

# TARGET_ENTITY: TAF1-BD1 (Homo sapiens)
# EXPERIMENTAL_PROTOCOL: TAF1-BD1 TR-FRET Binding Assay
# ASSAY_CONTEXT: read-out: TAF1-BD1 HTRF IC50
pIC50: −log10 of the molar value.

{"COMPOUND": "CCOC(=O)c1c(C)[nH]c2c(=O)n(C)cc(C#CC(C)(O)C3CCOCC3)c12 (stereo not shown)", "TARGET_ENTITY": "TAF1-BD1 (Homo sapiens)", "pIC50": 6.11}
{"COMPOUND": "Cc1[nH]c2c(=O)n(C)cc(C#CC(O)(c3ccccc3)C(F)(F)F)c2c1-c1nnc(CCN(C)C)o1 (stereo not shown)", "TARGET_ENTITY": "TAF1-BD1 (Homo sapiens)", "pIC50": 6.14}
{"COMPOUND": "Cc1[nH]c2c(=O)n(C)cc(C#CC(C)(O)C3CC3)c2c1C1=NCC(C)(C)O1 (stereo not shown)", "TARGET_ENTITY": "TAF1-BD1 (Homo sapiens)", "pIC50": 5.99}
{"COMPOUND": "Cc1[nH]c2c(=O)n(C)cc(C#CC(C)(C)O)c2c1C1=NC(C(C)C)CO1 (stereo not shown)", "TARGET_ENTITY": "TAF1-BD1 (Homo sapiens)", "pIC50": 5.91}
